# Tested on: NOD2
# experiment.notes: MDP-stimulated IL-8 release in 293/hNOD2 cells (HTRF)
# Assay type: cell-based, human
# recorded.conditions: Homo sapiens; MDP-stimulated IL-8 production assay in 293/hNOD2 cells; Figures 4 and 5; read-out: NOD2 IC50
pIC50: −log10 of the molar value.
Listed here are molecules together with their documented pIC50.
measured.parameter: pIC50

In [3]: df
Out[3]:
                                    molecule  target_or_system  measured_parameter  censoring_sign  observed_value
 0  O=C(Cn1c(CCNC(=O)c2ccc(Cl)c(Cl)c2)nc2ccccc21)Nc1ccc2c(c1)CCC2              NOD2               pIC50               <            4.30
 1  O=C(Cn1c(CCNC(=O)c2ccccc2)nc2ccccc21)Nc1ccc2c(c1)CCC2              NOD2               pIC50               =            5.48
 2  Cc1cccc2c1nc(CCNC(=O)c1ccccc1)n2CC(=O)Nc1ccc2c(c1)CCC2              NOD2               pIC50               <            4.30
 3  Cc1ccc2c(c1)nc(CCNC(=O)c1ccccc1)n2CC(=O)Nc1ccc2c(c1)CCC2              NOD2               pIC50               =            5.34
 4  CN(CCc1nc2ccccc2n1CC(=O)Nc1ccc2ccccc2c1)C(=O)c1ccccc1              NOD2               pIC50               =            6.70
 5  Cc1ccc(C(=O)NCCc2nc3ccccc3n2CC(=O)Nc2ccc3c(c2)CCC3)cc1              NOD2               pIC50               <            4.30
 6  O=C(Cn1c(CCNC(=O)c2cccc(Cl)c2)nc2ccccc21)Nc1ccc2c(c1)CCC2              NOD2               pIC50               <            4.30
 7  O=C(Cn1c(CCNC(=O)c2ccccc2)nc2ccc(Cl)cc21)Nc1ccc2c(c1)CCC2              NOD2               pIC50               =            5.38
 8  CN(CCc1nc2ccccc2n1CC(=O)Nc1ccc2occc2c1)C(=O)c1ccccc1              NOD2               pIC50               =            5.89
 9  O=C(Cn1c(CCNC(=O)c2ccccc2)nc2ccccc21)Nc1ccc2c(c1)C(O)CC2 (stereo not shown)              NOD2               pIC50               =            4.45
10  O=C(Cn1c(CCNC(=O)c2ccccc2)nc2ccccc21)Nc1ccc2occc2c1              NOD2               pIC50               =            5.48
11  O=C(Cn1c(CCNC(=O)c2ccccc2)nc2cc(Cl)ccc21)Nc1ccc2c(c1)CCC2              NOD2               pIC50               =            5.89
12  O=C(Cn1c(CCNC(=O)c2cccc3ccccc23)nc2ccccc21)Nc1ccc2c(c1)CCC2              NOD2               pIC50               =            5.47
13  CN(CCc1nc2ccccc2n1CC(=O)Nc1ccc(Cl)c(Cl)c1)C(=O)c1ccccc1              NOD2               pIC50               =            6.05
14  O=C(Cn1c(CCNC(=O)c2ccccc2)nc2ccccc21)Nc1ccc2[nH]ccc2c1              NOD2               pIC50               <            4.30
15  O=C(Cn1c(CCNC(=O)c2ccccc2Cl)nc2ccccc21)Nc1ccc2c(c1)CCC2              NOD2               pIC50               =            5.42
16  CC(C)c1cccc(NC(=O)Cn2c(CCNC(=O)c3ccccc3)nc3ccccc32)c1              NOD2               pIC50               =            6.10
17  CC(C)c1ccc(NC(=O)Cn2c(CCNC(=O)c3ccccc3)nc3ccccc32)cc1              NOD2               pIC50               =            5.40
18  Cc1cccc(C(=O)NCCc2nc3ccccc3n2CC(=O)Nc2ccc3c(c2)CCC3)c1              NOD2               pIC50               <            4.30
19  O=C(Cn1c(CCNC(=O)c2ccccc2)nc2ccccc21)Nc1ccc2c(c1)CCN2              NOD2               pIC50               <            4.30
20  Cc1ccc(NC(=O)Cn2c(CCN(C)C(=O)c3ccccc3)nc3ccccc32)cc1C              NOD2               pIC50               =            5.80
21  Cc1ccccc1C(=O)NCCc1nc2ccccc2n1CC(=O)Nc1ccc2c(c1)CCC2              NOD2               pIC50               =            5.33
22  O=C(Cn1c(CCNC(=O)c2ccccc2)nc2ccccc21)Nc1ccc(Cl)c(Cl)c1              NOD2               pIC50               =            5.48
23  O=C(Cn1c(CCNC(=O)c2ccccc2)nc2ccccc21)Nc1ccc2ccccc2c1              NOD2               pIC50               =            5.80
24  COc1ccc2nc(CCNC(=O)c3ccccc3)n(CC(=O)Nc3ccc4c(c3)CCC4)c2c1              NOD2               pIC50               <            4.30
25  O=C(Cn1c(CCNC(=O)c2ccccc2)nc2ccccc21)Nc1ccc2sccc2c1              NOD2               pIC50               =            5.89
26  CN(C(=O)Cn1c(CCNC(=O)c2ccccc2)nc2ccccc21)c1ccc2c(c1)CCC2              NOD2               pIC50               =            4.70
27  CC(C)c1cccc(NC(=O)Cn2c(CCN(C)C(=O)c3ccccc3)nc3ccccc32)c1              NOD2               pIC50               =            6.52

====

# Test system: TLR2
# experiment.notes: Pam2CSK4-stimulated IL-8 release in 293/hTLR2 cells
# Assay type: cell-based, human
# recorded.conditions: Homo sapiens; IL-8 end-point; 3–10 ng/mL Pam2CSK4; read-out: IC50 293/hTLR2 Pam2CSK4
measured.parameter: IC50

                                 mol_smiles  observed_value
0  CC(C)c1ccc(NC(=O)Cn2c(CCNC(=O)c3ccccc3)nc3ccccc32)cc1        > 100 µM

====

# Tested on: NOD1
# experiment.notes: iE-DAP-stimulated IL-8 release in 293/hNOD1 cells (HTRF)
# Assay type: cell-based, human
# recorded.conditions: Homo sapiens; IL-8 end-point; 60 ng/mL iE-DAP; read-out: IC50 293/hNOD1 iE-DAP
# Procedure: After 24 hours the amount of IL-8 secreted into the medium was determined by homogeneous time resolved fluorescence (HTRF) assay by the direct addition of a 1:1 mix of europium cryptate and XL665-conjugated anti-IL-8 antibodies according to the manufacturer's instructions (Cisbio).
measured.parameter: IC50

                                 mol_smiles  observed_value
0  CC(C)c1ccc(NC(=O)Cn2c(CCNC(=O)c3ccccc3)nc3ccccc32)cc1         > 50 µM

====

# target.or.system: full length human FLAG-6His tagged RIP2 (Homo sapiens)
# Sequence (O43353 whole entry): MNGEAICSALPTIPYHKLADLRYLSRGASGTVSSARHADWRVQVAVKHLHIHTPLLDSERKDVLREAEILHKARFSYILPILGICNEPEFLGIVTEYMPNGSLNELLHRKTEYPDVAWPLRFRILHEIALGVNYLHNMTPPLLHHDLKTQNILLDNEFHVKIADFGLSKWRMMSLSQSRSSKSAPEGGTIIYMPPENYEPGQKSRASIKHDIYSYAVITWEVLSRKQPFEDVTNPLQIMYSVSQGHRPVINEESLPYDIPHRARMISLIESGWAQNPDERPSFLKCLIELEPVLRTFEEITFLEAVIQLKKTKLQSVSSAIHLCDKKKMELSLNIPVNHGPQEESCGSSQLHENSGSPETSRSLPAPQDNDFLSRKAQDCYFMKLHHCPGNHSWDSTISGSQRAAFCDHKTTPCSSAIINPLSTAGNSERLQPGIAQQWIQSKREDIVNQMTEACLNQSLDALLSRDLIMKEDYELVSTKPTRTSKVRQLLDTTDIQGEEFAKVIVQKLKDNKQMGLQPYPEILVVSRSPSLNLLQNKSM
measured.parameter: IC50

>>> df
                                 mol_smiles  observed_value
0  O=C(Cn1c(CCNC(=O)c2ccccc2)nc2ccccc21)Nc1ccc2c(c1)CCC2        > 100 µM
